Molecular target: Zap-70 (Homo sapiens, UniProt P43403)
Construct: Kinases are expressed as either kinase domains or full length constructs; made in house
Sequence (P43403 1-619): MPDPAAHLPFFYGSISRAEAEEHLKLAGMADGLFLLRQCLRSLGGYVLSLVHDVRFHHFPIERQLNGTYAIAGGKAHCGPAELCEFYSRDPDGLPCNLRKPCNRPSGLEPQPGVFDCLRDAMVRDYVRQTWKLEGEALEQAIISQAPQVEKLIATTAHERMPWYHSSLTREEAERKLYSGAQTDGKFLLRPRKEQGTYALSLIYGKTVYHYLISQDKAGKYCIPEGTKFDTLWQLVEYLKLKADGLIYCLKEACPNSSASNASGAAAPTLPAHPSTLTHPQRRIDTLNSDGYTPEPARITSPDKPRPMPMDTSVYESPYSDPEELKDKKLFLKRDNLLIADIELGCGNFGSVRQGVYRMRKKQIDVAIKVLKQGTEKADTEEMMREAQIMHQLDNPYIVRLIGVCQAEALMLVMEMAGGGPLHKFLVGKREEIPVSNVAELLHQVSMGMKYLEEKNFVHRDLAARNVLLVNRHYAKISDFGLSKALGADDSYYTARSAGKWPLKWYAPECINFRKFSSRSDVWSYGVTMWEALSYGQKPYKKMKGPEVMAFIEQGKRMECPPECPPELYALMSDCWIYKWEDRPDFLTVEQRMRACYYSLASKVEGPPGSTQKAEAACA
Assay: Kinase inhibition assay (33P transfer), Zap-70
Type: biochemical
Conditions: Table 3; read-out: Zap-1
pIC50: −log10 of the molar value.
metric_name: pIC50

COc1ccc(Nc2ncnc(Nc3cc(OC)c(OC)c(OC)c3)n2)cc1OC	< 4.96
COc1cc(Nc2ncnc(N3CCCc4ccccc43)n2)cc(OC)c1OC	< 4.94
COc1ccc(Nc2nc3ccccc3n2-c2ncnc(Nc3cc(OC)c(OC)c(OC)c3)n2)cc1OC	< 5.07
CCOC(=O)Cc1ccc(Nc2ncnc(Nc3cc(-c4ccco4)n[nH]3)n2)cc1	< 4.95

Input: I am curious: what pIC50 value has been reported for O=c1[nH]c2ccccc2n1-c1ncnc(Nc2cccc(OC(F)(F)F)c2)n1 ?
Output: < 4.94

Input: How about COc1cc(Nc2ncnc(NC3CC3c3ccccc3)n2)cc(OC)c1OC (stereo not drawn) ?
Output: < 4.94

Input: Input COc1cc(Nc2ncnc(Nc3cc(-c4ccccc4)n[nH]3)n2)cc(OC)c1OC
Output: < 4.97

Input: Also, COc1cc(Nc2ncnc(Nc3ccc4c(c3)OCO4)n2)cc(OC)c1OC please.
Output: < 4.95

Input: Item: Nc1ncnc(Nc2cc(Cl)ccc2O)n1
Output: < 4.72

Input: Try this compound too: Brc1ccc(Nc2ncnc(-n3cccc3)n2)cc1
Output: 4.96 to 5.12

Input: Can you check CC(=O)NS(=O)(=O)c1ccc(Nc2ncnc(-n3c(N)nc4ccccc43)n2)cc1 next?
Output: 5.25 to 6.03

Input: # repeat for COc1cc(Nc2ncnc(Nc3ccc(N4CCOCC4)cc3)n2)cc(OC)c1OC
Output: < 4.99

Input: Would you kindly repeat that for COc1cc(Nc2ncnc(-c3ccc(N(C)C)nc3)n2)cc(OC)c1OC ?
Output: < 4.93

Input: Cool, now O=c1[nH]c2ccccc2n1-c1ncnc(Nc2ccc(-c3cnco3)cc2)n1
Output: < 4.92

Input: Same lookup for COc1cc(Nc2ncnc(Nc3cc(Cl)c(O)c(Cl)c3)n2)cc(OC)c1OC , please.
Output: < 4.99

Input: Would you kindly repeat that for Fc1ccccc1Nc1ncnc(-c2ccccc2)n1 ?
Output: < 4.77

Input: Now give it for O=C(Nc1cccc(Nc2ncnc(-n3c(=O)[nH]c4ccccc43)n2)c1)O[C@@H]1CCOC1 too.
Output: < 4.98

Input: Repeat with COc1cc(Nc2ncnc(Nc3ccc(F)c(Cl)c3)n2)cc(OC)c1OC
Output: < 4.96
